# Test system: S. aureus C623 (MRSA)
# protocolSummary: microbe, parasite or virus in culture
# testContext: C623
Square brackets hold non-standard residues; d marks the D form. Peptide text beside a SMILES is read from it. Nspe = C[C@H](NCC(=O)O)c1ccccc1; Nphe = O=C(O)CNCc1ccccc1; Nlys = NCCCCNCC(=O)O
measurementName: MIC
Remember to follow the number with its unit.

Incoming: Entry C[C@@H](c1ccccc1)N(CC(N)=O)C(=O)CN(C(=O)CN(CCCCN)C(=O)[C@@H]1CCCN1C(=O)CN(C(=O)CN(CCCCN)C(=O)CN(C(=O)CN(C(=O)CN(CCCCN)C(=O)CN(C(=O)CN(C(=O)CNCCCCN)[C@@H](C)c1ccccc1)[C@@H](C)c1ccccc1)[C@@H](C)c1ccccc1)[C@@H](C)c1ccccc1)[C@@H](C)c1ccccc1)[C@@H](C)c1ccccc1 [Peptoid 1-Pro9] (H-[Nlys][Nspe][Nspe][Nlys][Nspe][Nspe][Nlys][Nspe]P[Nlys][Nspe][Nspe]-NH2) has what MIC?
Outgoing: 8 µg/mL

Incoming: Which MIC value belongs to C[C@@H](c1ccccc1)N(CC(N)=O)C(=O)CN(C(=O)CN(CCCCN)C(=O)CN(C(=O)CN(C(=O)CN(CCCCN)C(=O)[C@@H]1CCCN1C(=O)CN(C(=O)CN(CCCCN)C(=O)CN(C(=O)CN(C(=O)CNCCCCN)[C@@H](C)c1ccccc1)[C@@H](C)c1ccccc1)[C@@H](C)c1ccccc1)[C@@H](C)c1ccccc1)[C@@H](C)c1ccccc1)[C@@H](C)c1ccccc1 [Peptoid 1-Pro6] (H-[Nlys][Nspe][Nspe][Nlys][Nspe]P[Nlys][Nspe][Nspe][Nlys][Nspe][Nspe]-NH2) ?
Outgoing: 8 µg/mL

Incoming: Sample C[C@@H](c1ccccc1)N(CC(N)=O)C(=O)CN(Cc1ccccc1)C(=O)CN(CCCCN)C(=O)CN(C(=O)CN(Cc1ccccc1)C(=O)CN(CCCCN)C(=O)CN(C(=O)CN(Cc1ccccc1)C(=O)CN(CCCCN)C(=O)CN(C(=O)CN(Cc1ccccc1)C(=O)CNCCCCN)[C@@H](C)c1ccccc1)[C@@H](C)c1ccccc1)[C@@H](C)c1ccccc1 [1-Npm2,5,8,11, H-(NLys-Npm-Nspe)4-NH2] (H-[Nlys][Nphe][Nspe][Nlys][Nphe][Nspe][Nlys][Nphe][Nspe][Nlys][Nphe][Nspe]-NH2) — what was its MIC?
Outgoing: 8 µg/mL

Incoming: Which MIC is reported for this compound? C[C@@H](c1ccccc1)N(CC(N)=O)C(=O)CN(CCCCN)C(=O)CN(CCCCN)C(=O)CN(C(=O)CN(C(=O)CN(CCCCN)C(=O)CN(C(=O)CN(CCCCN)C(=O)CN(CCCCN)C(=O)CN(C(=O)CN(C(=O)CNCCCCN)[C@@H](C)c1ccccc1)[C@@H](C)c1ccccc1)[C@@H](C)c1ccccc1)[C@@H](C)c1ccccc1)[C@@H](C)c1ccccc1 [1-NLys5,11, H-(NLys-Nspe-Nspe-NLys-NLys-Nspe)2-NH2] (H-[Nlys][Nspe][Nspe][Nlys][Nlys][Nspe][Nlys][Nspe][Nspe][Nlys][Nlys][Nspe]-NH2)
Outgoing: 64 µg/mL

Incoming: What value of MIC has been reported for the following compound? `CC(C)[C@H](C)N(CC(N)=O)C(=O)CN(C(=O)CN(CCCCN)C(=O)CN(C(=O)CN(C(=O)CN(CCCCN)C(=O)CN(C(=O)CN(C(=O)CN(CCCCN)C(=O)CN(C(=O)CN(C(=O)CNCCCCN)[C@@H](C)C(C)C)[C@@H](C)C(C)C)[C@@H](C)C(C)C)[C@@H](C)C(C)C)[C@@H](C)C(C)C)[C@@H](C)C(C)C)[C@@H](C)C(C)C`
Outgoing: 8 µg/mL

Ref: paper PMC4744035
